FYI, the data here is from ChEMBL document CHEMBL3286213.

- ASSAY PROTOCOL: Retention time of the compound by RP-HPLC analysis
- Format: physicochemical
MEASUREMENT TYPE: Retention_time (min)

[
  {
    "COMPOUND": "CCOC(=O)C1=C(C(=O)c2ccc(OC)cc2)[C@H](c2cccc(-c3ccc(C#N)cc3)n2)NC(=O)N1",
    "UOM": "min",
    "MEASURED RESULT": 20.8
  },
  {
    "COMPOUND": "CCOC(=O)C1=C(C(=O)c2ccc(OC)cc2)C(c2cccc(OCC)c2)NC(=O)N1 (centres undefined)",
    "UOM": "min",
    "MEASURED RESULT": 22.9
  },
  {
    "COMPOUND": "CCOC(=O)C1=C(C)N(C)C(=O)NC1c1ccc(-c2cccc(C(F)(F)F)c2)o1 (centres undefined)",
    "UOM": "min",
    "MEASURED RESULT": 26.7
  },
  {
    "COMPOUND": "CCOC(=O)C1=C(C(=O)c2ccc(OC)cc2)[C@H](c2coc3c(Br)cc(Br)cc3c2=O)NC(=O)N1",
    "UOM": "min",
    "MEASURED RESULT": 26.4
  }
]
